- Assay comment: inhibition of PAO1 biofilm formation – strain PAO1, LB-PBS medium, absorbance 600 nm, primary screen (AID 1176); also: test concentration not given here
- Condition context: P. aeruginosa PAO1 growth/biofilm, A600, 12 h; higher = more signal
Parameter: z-score
Give the figure by itself; no unit, no explanation.

| Compound | z-score |
| --- | --- |
| O=C(NC1CC1)[C@@H]1c2ccccc2C(=O)N(CC23CC4CC(CC(C4)C2)C3)[C@H]1c1ccc(CO)cc1 | 0.338 |
| COc1ccc(C(O)C2C=CC3C(=O)N(c4ccccc4)C(=O)C3N2Nc2ccc([N+](=O)[O-])cc2)c2ccccc12 (centres undefined) | 2.53 |

**Q:** Name the recorded z-score for "O=C1O[C@H](c2ccccc2)[C@H](c2ccccc2)N2[C@H]1[C@@H](C(=O)N1CCN(c3ncccn3)CC1)[C@]1(C(=O)Nc3ccc(C#CCCO)cc31)[C@H]2c1ccc(O)cc1" .
**A:** 0.462

**Q:** Another compound to check: "COc1ccc(CCNC(=O)[C@@H]2c3ccccc3C(=O)N(Cc3ccccc3OC)[C@H]2c2ccc(CO)cc2)cc1"
**A:** 0.264

* * *

- Study system: Left-right determination factor 2 (Homo sapiens)
- Assay comment: small molecules binding LEFTY2 protein – biochemical, small-molecule microarray, 635 nm fluorescence scan, primary screen (AID 1110)
- Condition context: higher = more signal
Each entry below carries its recorded composite z-score.
In your answer, state the number alone without any accompanying words.

Example results:
| Compound | composite z-score |
| --- | --- |
| COc1ccc([Si](C)(C)[C@@H]2[C@@H](CC(=O)N(CCO)Cc3ccccc3)O[C@]3(C(=O)N(Cc4ccc(N5C(=O)c6cccc7cccc5c67)cc4)c4ccccc43)[C@H]2C)cc1 | 0.495 |
| C=CCC(OC(C)=O)[C@@H]1[C@@H](N(Cc2ccc(-c3cccc(C(F)(F)F)c3)o2)C(=O)c2ccc(-c3ccccc3)cc2)c2cc(OCCCO)ccc2N1C(=O)c1ccc2ccccc2c1 (some centres not stated) | 0.27 |
| CN(C)CCCNC(=O)[C@@]1(C)c2ccccc2C(=O)N(Cc2ccc(OC(F)(F)F)cc2)[C@H]1c1ccc(CO)cc1 | -1.01 |
| COc1ccc([Si](C)(C)[C@H]2[C@H](CC(=O)N3Cc4ccccc4C[C@H]3CO)O[C@@]3(C(=O)N(C)c4c(Br)cc(C)cc43)[C@@H]2C)cc1 | 0.205 |
| C=CCOC(=O)[C@H]1[C@@H]2C(=O)O[C@@H](c3ccccc3)[C@@H](c3ccccc3)N2[C@@H](c2ccc(OCCOC(=O)[C@@H]3C[C@@H]4C(=O)N[C@@H](CCCCNC(C)=O)C(=O)N4[C@@H]3c3cccc(OCCO)c3)cc2)[C@]12C(=O)Nc1ccccc12 | 0.781 |
| CCCCC(O)C1C=CC2C(=O)N(c3ccccc3)C(=O)C2N1Nc1ccc([N+](=O)[O-])cc1 (configuration not stated) | 0.0256 |
| CC1CC/C=C\[C@H]2OC34C=CCN(c5ccc6ccccc6c5)C(=O)[C@H]3N(C(C)CO)C(=O)[C@@H]4C2C(=O)O1 (some centres not stated) | -0.82 |
| C=C(/C(=C/C[C@@H](OC(C)=O)c1cccc(OCCO)c1)c1cnc2ccccc2c1)C(C)C | 0.54 |

**Q:** Bench note: what composite z-score did "C=CCOC(=O)[C@H]1[C@@H]2C(=O)O[C@@H](c3ccccc3)[C@@H](c3ccccc3)N2[C@@H](c2ccc(OCCOC(=O)[C@@H]3C[C@@H]4C(=O)N[C@@H](CCCC[N+](C)(C)C)C(=O)N4[C@@H]3c3ccc(O)cc3)cc2)[C@]12C(=O)Nc1ccc(I)cc12" show?
**A:** 0.668

**Q:** Next: "COc1ccc([Si](C)(C)[C@@H]2[C@@H](CC(=O)N3CCC[C@H]3CO)O[C@]3(C(=O)N(Cc4cccc(N5CCCCC5=O)c4)c4ccccc43)[C@H]2C)cc1"
**A:** 0.415

**Q:** Another compound to look at: "COCCOC(=O)N1C(=O)[C@@]2(c3cc(C#CCC(C(=O)OC)C(=O)OC)ccc31)[C@H](C(=O)Nc1nc3ccccc3s1)[C@H]1C(=O)O[C@H](c3ccccc3)[C@H](c3ccccc3)N1[C@@H]2c1ccc(O)cc1"
**A:** 1.31

**Q:** Would you mind doing "O=C1C=C(c2ccccc2)C(=O)C2=C1CC([C@H]1Oc3ccccc3S(=O)(=O)N3CCC[C@@H]13)=CC2" as well?
**A:** 0.0208
